Record form. Attribute: Eosinophil million/animal x ± s, B = group treated with substance with OVA challenge. Fill in for each entry.
Tested on: pulmonary eosinophil infiltration
PROTOCOL_DETAILS: Inhibition of late-phase eosinophilia 24 h after inhalational ovalbumin challenge in actively sensitized guinea-pigs
Type: in vivo
DETAILS: 10 mg/kg i.p. -2 h; BAL 24 h after OVA challenge
Answers are plain numbers, in million/animal.

// below: answered compounds
Item: COc1ccc2c(c1)c(OCCOc1ccc(Cl)cc1)nn2S(=O)(=O)c1ccc(F)cc1 | Eosinophil million/animal x ± s, B = group treated with substance with OVA challenge: 1.84

Item: COc1ccc2c(c1)c(OCc1cc(C(C)=O)ccc1OC)nn2CCOc1ccc([N+](=O)[O-])cc1 | Eosinophil million/animal x ± s, B = group treated with substance with OVA challenge: 1.44

Item: COc1ccc2c(c1)c(OCCOc1c(F)cc(F)cc1Br)nn2S(=O)(=O)c1ccc(C)cc1 | Eosinophil million/animal x ± s, B = group treated with substance with OVA challenge: 1.23

Please turn your attention to the following entry.
Item: COc1ccc2c(c1)c(OCCOc1ccc([N+](=O)[O-])cc1)nn2Cc1ccc(F)cc1 | Eosinophil million/animal x ± s, B = group treated with substance with OVA challenge: 1.16
